Target: His-GST-TVMV-hRIPK1(1-324) (Homo sapiens)
Construct: The coding region of human RIPK1(1-324) flanked by NdeI site at 5′ end; made in house; host or cells: Spodoptera frugiperda Sf9 insect cells (baculovirus, Bac-to-Bac)
Sequence (Q13546 1-324): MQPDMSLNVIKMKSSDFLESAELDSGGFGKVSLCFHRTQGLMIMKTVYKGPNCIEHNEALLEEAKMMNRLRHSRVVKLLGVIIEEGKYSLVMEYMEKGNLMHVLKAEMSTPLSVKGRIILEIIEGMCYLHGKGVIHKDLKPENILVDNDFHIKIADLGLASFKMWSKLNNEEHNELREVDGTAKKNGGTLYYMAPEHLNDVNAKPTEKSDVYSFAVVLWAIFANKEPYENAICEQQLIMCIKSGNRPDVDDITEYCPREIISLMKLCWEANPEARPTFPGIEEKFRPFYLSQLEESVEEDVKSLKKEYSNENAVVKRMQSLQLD
Experiment: biochemical
Type: binding
Details: HTRF probe displacement, 1 h at rt; read-out: RIPK1 IC50
observable: IC50 (nM)

compound="Cc1ccc(C(O)C(F)(F)CNC(=O)c2c(Cl)ccc(-c3ccn4nc(N)nc4c3)c2F)c(F)c1 (stereo not shown) [Example 183]" reading_unit=nM observed_measurement=0.4
compound="Cc1ccc(-c2ccn3nc(N)nc3c2)c(Cl)c1C(=O)NCC[C@H](O)c1ccc(Cl)cc1 [Example 145]" reading_unit=nM observed_measurement=21
compound="Nc1nc2cc(-c3ccc(Cl)c(C(=O)NCC(F)(F)[C@@H](F)c4ccc(F)cc4)c3F)ccn2n1 [Example 282]" reading_unit=nM observed_measurement=2.2
compound="Cc1ccc(-c2ccn3nc(N)nc3c2)c(F)c1C(=O)NCCC(O)C1CCCCC1 (single isomer, unassigned) [Example 41]" reading_unit=nM observed_measurement=5.4
compound="Nc1nc2cc(-c3ccc(Cl)c(C(=O)NCCC(O)c4ccc(F)cc4)c3F)ccn2n1 (stereo not shown) [Example 78]" reading_unit=nM observed_measurement=19
compound="Cc1ccc(-c2ccn3nc(N)nc3c2)c(F)c1C(=O)NC(CF)CC(O)c1ccc(F)cc1 (single isomer, unassigned) [Example 27]" reading_unit=nM observed_measurement=60
compound="Cc1cc(F)c(-c2ccn3nc(N)nc3c2)cc1C(=O)NCCC(O)c1ccc(F)cc1 (single isomer, unassigned) [Example 10]" reading_unit=nM observed_measurement=9.4
compound="Cc1cc(F)c(-c2ccn3nc(N)nc3c2)cc1C(=O)NCCC(O)c1ccc(Cl)cn1 (stereo not shown) [Example 5]" reading_unit=nM observed_measurement=6.4
compound="CC(O)(c1ccc(F)cc1)C(F)(F)CNC(=O)c1c(Cl)ccc(-c2ccn3nc(N)nc3c2)c1F (single isomer, unassigned) [Example 89]" reading_unit=nM observed_measurement=7.7
compound="Cc1ccc(-c2ccn3nc(N)nc3c2)c(F)c1C(=O)NCCC(O)c1ccc(F)cc1 (stereo not shown) [Example 49]" reading_unit=nM observed_measurement=2.5
compound="CC(O)(c1ccc(Cl)cc1)C(F)(F)CNC(=O)c1c(Cl)ccc(-c2ccn3nc(N)nc3c2)c1F (single isomer, unassigned) [Example 223]" reading_unit=nM observed_measurement=5.8
compound="Nc1nc2cc(-c3ccc(Cl)c(C(=O)NCC(F)(F)C(O)c4ccc(C(F)(F)F)cc4F)c3F)ccn2n1 (stereo not shown) [Example 165]" reading_unit=nM observed_measurement=1.6
compound="Nc1nc2cc(-c3ccc(Cl)c(C(=O)NCC(F)(F)C(O)c4ccc(Cl)c(Cl)c4)c3F)ccn2n1 (single isomer, unassigned) [Example 264]" reading_unit=nM observed_measurement=6.2
compound="Cc1c(F)cc(-c2ccn3nc(N)nc3c2)cc1C(=O)NCCC(C)c1ccccc1 (stereo not shown) [Example 95]" reading_unit=nM observed_measurement=3
compound="[2H]C(O)(c1ccc(C(F)F)cc1)C(F)(F)CNC(=O)c1c(Cl)ccc(-c2ccn3nc(N)nc3c2)c1F (single isomer, unassigned) [Example 312]" reading_unit=nM observed_measurement=5.7
compound="Nc1nc2cc(-c3ccc(Cl)c(C(=O)NCC(F)(F)C(O)c4cc(F)cc(F)c4)c3F)ccn2n1 (stereo not shown) [Example 188]" reading_unit=nM observed_measurement=6.3
compound="Nc1nc2cc(-c3ccc(Cl)c(C(=O)NCC(F)(F)C(O)c4ccc(Cl)c(F)c4)c3F)ccn2n1 (stereo not shown) [Example 191]" reading_unit=nM observed_measurement=2.6
compound="Cc1c(C(=O)NC(C)CC(O)c2ccc(Cl)cc2)cc(-c2ccn3nc(N)nc3c2)c(F)c1F (racemic) [Example 101]" reading_unit=nM observed_measurement=4.8
compound="Cc1ccc(-c2ccn3nc(N)nc3c2C)c(F)c1C(=O)NCC[C@H](O)c1ccc(Cl)cc1 (single isomer, unassigned; enantiomer 2) [Example 138]" reading_unit=nM observed_measurement=11
